For each record, write down the corresponding pest or weed control at 121.5 g/ha.
System: Puccinia triticina
Test: Wheat Brown Rust fungicidal activity (PUCCRT)
Format: in vivo
Details: 24 h, Low Volume Cereal Activity at 121.5 g/Ha, 1 Day Protectant, read-out: PUCCRT 1DP (Wheat Brown Rust, 1 Day Protectant)

## Input If you can, please state the reported pest or weed control at 121.5 g/ha value of COc1ccccc1[C@@H](Oc1ccccc1)[C@H](C)OC(=O)[C@H](C)NC(=O)c1nccc(OC)c1OCOC(C)=O [Example 255] .
## Output > 80%

## Input Similarly, COc1ccnc(C(=O)N[C@@H](C)C(=O)O[C@@H](C)[C@H](OCC2CC2)c2cccc(-c3ccccc3)c2)c1OC(C)=O [Example 222] ?
## Output > 80%

## Input Similarly, COc1ccnc(C(=O)N[C@@H](C)C(=O)O[C@@H](C)[C@H](Oc2cc(F)ccc2F)c2ccccc2)c1OCOC(C)=O [Example 191] ?
## Output > 80%

## Input Similarly, COc1ccnc(C(=O)N[C@@H](C)C(=O)O[C@@H](C)[C@@H](Oc2ccccc2)c2ccccc2)c1OC(=O)C(C)C [Example 218] ?
## Output < 0%

## Input Similarly, COc1ccnc(C(=O)N[C@@H](C)C(=O)O[C@@H](C)[C@H](Oc2ccc(C(F)(F)F)cc2)c2ccccc2)c1OCOC(C)=O [Example 195] ?
## Output > 80%

----------
Tested on: Phakopsora pachyrhizi
Test: Asian Soybean Rust fungicidal activity (PHAKPA)
Conditions: Phakopsora pachyrhizi, in Glycine max, 24 h, read-out: PHAKPA 1DP % Control rating, soybean, high volume, 25 ppm, 1 Day Protectant
For each record, write down the corresponding pest or weed control at 25 ppm.

## Input If you can, please state the reported pest or weed control at 25 ppm value of COc1ccnc(C(=O)N[C@@H](C)C(=O)O[C@@H](C)[C@H](Oc2ccccc2)c2ccc(F)cc2OC(C)=O)c1OC(C)=O [Example 267] .
## Output < 80%

## Input Similarly, COc1ccnc(C(=O)N[C@@H](C)C(=O)O[C@@H](C)[C@H](Oc2ccccc2)c2cccc3ccccc23)c1OCOC(C)=O [Example 262] ?
## Output > 80%

## Input Similarly, COc1cc(F)ccc1[C@H](OC1CC1)[C@H](C)OC(=O)[C@H](C)NC(=O)c1nccc(OC)c1OC(C)=O [Example 298] ?
## Output > 80%

## Input Similarly, COc1ccnc(C(=O)N[C@@H](C)C(=O)O[C@@H](C)[C@H](Oc2ccccc2Cl)c2ccccc2)c1OC(C)=O [Example 205] ?
## Output < 80%

## Input Similarly, COc1cc(F)ccc1[C@@H](OC(=O)C1CC1)[C@H](C)OC(=O)[C@H](C)NC(=O)c1nccc(OC)c1OC(C)=O [Example 297] ?
## Output < 80%

## Input Similarly, COc1ccnc(C(=O)N[C@@H](C)C(=O)O[C@@H](C)[C@@H](OC)c2ccccc2)c1OCOC(C)=O [Example 230] ?
## Output < 80%

## Input Similarly, COc1cc(F)ccc1[C@@H](OC1CC1)[C@H](C)OC(=O)[C@H](C)NC(=O)c1nccc(OC)c1OC(C)=O [Example 299] ?
## Output > 80%

## Input Similarly, COc1ccnc(C(=O)N[C@@H](C)C(=O)O[C@@H](C)[C@H](Oc2cc(F)cc(Cl)c2)c2ccccc2)c1OC(C)=O [Example 207] ?
## Output < 80%

## Input Similarly, COc1cc(F)ccc1[C@@H](OCC1CC1)[C@H](C)OC(=O)[C@H](C)NC(=O)c1nccc(OC)c1OC(C)=O [Example 295] ?
## Output > 80%

## Input Similarly, COc1ccnc(C(=O)N[C@@H](C)C(=O)O[C@@H](C)[C@H](Oc2ccccc2)c2ccc(F)cc2)c1OCOC(C)=O [Example 241] ?
## Output > 80%

## Input Similarly, COc1ccnc(C(=O)N[C@@H](C)C(=O)O[C@@H](C)[C@H](Oc2ccccc2)c2ccc(F)cc2OCC2CC2)c1OC(C)=O [Example 272] ?
## Output < 80%

## Input Similarly, COc1cc(F)ccc1[C@@H](OC(=O)C(C)(C)C)[C@H](C)OC(=O)[C@H](C)NC(=O)c1nccc(OC)c1OC(C)=O [Example 296] ?
## Output < 80%

## Input Similarly, COc1ccnc(C(=O)N[C@@H](C)C(=O)O[C@@H](C)[C@H](Oc2cccc(F)c2)c2ccccc2)c1OCOC(C)=O [Example 187] ?
## Output > 80%

## Input Similarly, COc1ccnc(C(=O)N[C@@H](C)C(=O)O[C@@H](C)[C@H](Oc2ccccc2)c2ccc(F)cc2Cl)c1OCOC(C)=O [Example 260] ?
## Output > 80%

## Input Similarly, COc1ccnc(C(=O)N[C@@H](C)C(=O)O[C@@H](C)[C@H](Oc2cccc(F)c2)c2ccccc2)c1OC(C)=O [Example 188] ?
## Output > 80%

## Input Similarly, CCCOc1cc(F)ccc1[C@@H](Oc1ccccc1)[C@H](C)OC(=O)[C@H](C)NC(=O)c1nccc(OC)c1OC(C)=O [Example 268] ?
## Output < 80%

## Input Similarly, COc1ccnc(C(=O)N[C@@H](C)C(=O)O[C@@H](C)[C@H](Oc2ccccc2)c2ccccc2)c1OC(C)=O [Example 184] ?
## Output < 80%

## Input Similarly, COc1cc(F)ccc1[C@@H](Oc1ccccc1)[C@H](C)OC(=O)[C@H](C)NC(=O)c1nccc(OC)c1OCOC(C)=O [Example 256] ?
## Output > 80%

## Input Similarly, COc1ccnc(C(=O)N[C@@H](C)C(=O)O[C@@H](C)[C@H](Oc2ccccc2)c2ccc(F)cc2F)c1OCOC(C)=O [Example 250] ?
## Output > 80%

## Input Similarly, COc1ccnc(C(=O)N[C@@H](C)C(=O)O[C@@H](C)[C@H](Oc2ccc(F)cc2)c2ccccc2)c1OC(C)=O [Example 235] ?
## Output < 80%

## Input Similarly, CCOc1cc(F)ccc1[C@@H](Oc1ccccc1)[C@H](C)OC(=O)[C@H](C)NC(=O)c1nccc(OC)c1OC(C)=O [Example 265] ?
## Output < 80%

## Input Similarly, COc1ccnc(C(=O)N[C@@H](C)C(=O)O[C@@H](C)[C@H](Oc2ccccc2)c2ccccc2)c1OCOC(C)=O [Example 183] ?
## Output < 80%

----------
For each record, write down the corresponding pest or weed control at 100 ppm.
Tested on: Zymoseptoria tritici
Assay: Leaf Blotch of Wheat fungicidal activity (SEPTTR)
Assay type: in vivo
Details: 24 h, wheat, high volume, 100 ppm, 1 Day Protectant, read-out: SEPTTR 1DP % Control rating

## Input If you can, please state the reported pest or weed control at 100 ppm value of COc1ccnc(C(=O)N[C@@H](C)C(=O)O[C@@H](C)[C@H](Oc2cccc(F)c2)c2cccc(-c3ccccc3)c2)c1O [Example 133] .
## Output < 0%

## Input Similarly, COc1ccnc(C(=O)N[C@@H](C)C(=O)O[C@@H](C)[C@H](OCC2CC2)c2cccc(-c3ccccc3)c2)c1O [Example 131] ?
## Output < 0%

## Input Similarly, COc1ccnc(C(=O)N[C@@H](C)C(=O)O[C@@H](C)[C@H](Oc2ccc(C)cc2)c2ccc(F)cc2)c1O [Example 152] ?
## Output > 80%

## Input Similarly, COc1ccnc(C(=O)N[C@@H](C)C(=O)O[C@@H](C)[C@H](Oc2ccccc2)c2ccc(F)cc2OCC2CC2)c1O [Example 175] ?
## Output > 80%

## Input Similarly, COc1cc(F)ccc1[C@@H](OCC1CC1)[C@H](C)OC(=O)[C@H](C)NC(=O)c1nccc(OC)c1O [Example 289] ?
## Output > 80%

## Input Similarly, COc1ccnc(C(=O)N[C@@H](C)C(=O)O[C@@H](C)[C@H](Oc2ccccc2)c2cccc(-c3ccccc3)c2)c1O [Example 145] ?
## Output > 80%

## Input Similarly, COc1ccnc(C(=O)N[C@@H](C)C(=O)O[C@@H](C)[C@@H](OCC2CC2)c2ccccc2)c1O [Example 142] ?
## Output < 80%

## Input Similarly, COc1ccnc(C(=O)N[C@@H](C)C(=O)O[C@@H](C)[C@H](Oc2ccccc2)c2ccc(-c3ccccc3)cc2)c1O [Example 144] ?
## Output > 80%

## Input Similarly, COc1ccnc(C(=O)N[C@@H](C)C(=O)O[C@@H](C)[C@H](Oc2ccc(C)cc2Cl)c2ccc(F)cc2)c1O [Example 150] ?
## Output > 80%

## Input Similarly, COc1ccnc(C(=O)N[C@@H](C)C(=O)O[C@@H](C)[C@H](Oc2ccc(Cl)cc2Cl)c2ccccc2)c1O [Example 120] ?
## Output > 80%

## Input Similarly, COc1ccnc(C(=O)N[C@@H](C)C(=O)O[C@@H](C)[C@@H](OC)c2ccccc2)c1O [Example 140] ?
## Output < 0%
